- tested_on: TRPM7 (Mus musculus, UniProt Q923J1)
- Construct: expressed in transfected cells; host or cells: HEK-293 tSA (HEK-293T) cells, transient transfection with Lipofectamine 2000
- Sequence (Q923J1 whole entry): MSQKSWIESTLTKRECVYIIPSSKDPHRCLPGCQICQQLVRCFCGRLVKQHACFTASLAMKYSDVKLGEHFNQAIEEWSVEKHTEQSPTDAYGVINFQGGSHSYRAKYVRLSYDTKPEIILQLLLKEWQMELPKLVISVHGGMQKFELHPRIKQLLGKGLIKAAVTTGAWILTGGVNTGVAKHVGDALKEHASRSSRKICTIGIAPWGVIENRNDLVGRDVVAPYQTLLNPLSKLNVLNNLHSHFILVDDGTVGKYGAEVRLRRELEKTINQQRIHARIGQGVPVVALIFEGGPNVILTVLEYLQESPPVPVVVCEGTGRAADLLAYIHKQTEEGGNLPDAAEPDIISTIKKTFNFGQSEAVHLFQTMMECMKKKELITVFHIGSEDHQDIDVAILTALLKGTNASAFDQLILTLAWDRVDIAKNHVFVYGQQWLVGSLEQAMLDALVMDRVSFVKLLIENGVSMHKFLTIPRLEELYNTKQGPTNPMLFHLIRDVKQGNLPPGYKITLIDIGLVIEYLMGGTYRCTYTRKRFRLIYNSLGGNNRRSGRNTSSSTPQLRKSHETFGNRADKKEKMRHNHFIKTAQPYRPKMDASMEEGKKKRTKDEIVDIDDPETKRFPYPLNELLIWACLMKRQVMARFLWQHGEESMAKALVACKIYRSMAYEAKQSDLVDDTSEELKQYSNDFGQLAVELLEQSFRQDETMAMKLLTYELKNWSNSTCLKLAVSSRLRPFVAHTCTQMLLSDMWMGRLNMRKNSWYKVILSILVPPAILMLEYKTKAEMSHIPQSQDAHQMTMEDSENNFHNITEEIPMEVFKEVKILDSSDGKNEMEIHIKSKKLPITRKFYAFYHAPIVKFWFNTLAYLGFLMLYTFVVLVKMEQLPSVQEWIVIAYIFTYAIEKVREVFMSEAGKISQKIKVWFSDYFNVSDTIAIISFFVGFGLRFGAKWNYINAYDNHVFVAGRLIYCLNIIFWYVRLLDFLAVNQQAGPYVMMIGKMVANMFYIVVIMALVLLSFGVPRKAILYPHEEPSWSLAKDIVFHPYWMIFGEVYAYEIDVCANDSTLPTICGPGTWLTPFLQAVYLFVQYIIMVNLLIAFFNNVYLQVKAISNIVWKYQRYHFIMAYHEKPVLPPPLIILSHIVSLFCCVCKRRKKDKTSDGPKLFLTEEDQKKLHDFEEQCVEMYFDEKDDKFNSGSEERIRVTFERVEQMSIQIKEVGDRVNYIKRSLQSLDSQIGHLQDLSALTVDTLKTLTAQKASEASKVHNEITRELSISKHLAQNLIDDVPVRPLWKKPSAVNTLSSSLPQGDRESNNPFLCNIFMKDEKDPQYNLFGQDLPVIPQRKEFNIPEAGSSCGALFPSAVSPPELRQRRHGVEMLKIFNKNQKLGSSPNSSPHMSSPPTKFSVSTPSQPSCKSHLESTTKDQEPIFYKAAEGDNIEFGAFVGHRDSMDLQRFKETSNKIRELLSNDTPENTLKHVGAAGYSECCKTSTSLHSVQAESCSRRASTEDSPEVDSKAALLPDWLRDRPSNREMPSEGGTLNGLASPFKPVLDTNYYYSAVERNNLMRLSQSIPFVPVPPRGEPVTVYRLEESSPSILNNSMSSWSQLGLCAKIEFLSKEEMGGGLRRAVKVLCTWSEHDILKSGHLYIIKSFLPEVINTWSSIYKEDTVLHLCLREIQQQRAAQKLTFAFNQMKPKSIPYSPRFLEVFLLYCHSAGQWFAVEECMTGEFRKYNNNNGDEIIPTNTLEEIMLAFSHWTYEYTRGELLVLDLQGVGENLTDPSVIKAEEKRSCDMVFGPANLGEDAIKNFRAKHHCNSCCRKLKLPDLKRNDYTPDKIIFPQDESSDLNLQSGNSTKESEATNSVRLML
- test_protocol: PI uptake cell death assay in TRPM7-expressing HEK-293 cells (type of assay from Example 1)
- Format: cell-based, murine
- condition_label: 5 μM; Table X; the lower the number, the more potent in protecting against cell death
Labelling field: enter fulfilled if recorded Normalized ratio of PI uptake (5 μM) is less than 0.2. Enter not fulfilled if it equals or exceeds that cut-off.

QUERY: Consider Cc1c(Cc2cccc(Cl)c2)c(=O)[nH]c2cc(O)cc(O)c12 . Does its Normalized ratio of PI uptake (5 μM) lie strictly below 0.2?
RESULT: not fulfilled

QUERY: Strictly below 0.2: is that where Normalized ratio of PI uptake (5 μM) of Cc1c(Cc2cccc(Cl)c2)c(=O)oc2cc(O)cc(O)c12 sits?
RESULT: fulfilled

QUERY: Item Fc1ccc2c(c1)CCN=C2c1sc2ccccc2c1Cl : Normalized ratio of PI uptake (5 μM) beneath 0.2, strictly?
RESULT: not fulfilled

QUERY: Hello, is Normalized ratio of PI uptake (5 μM) of the following compound strictly smaller than 0.2? Fc1ccc2c(c1)CCNC2c1sc2ccccc2c1Cl (stereo not shown)
RESULT: fulfilled

QUERY: Lab note: confirm whether the reported Normalized ratio of PI uptake (5 μM) for this compound is below 0.2, equality not counting. compound: Cc1ccc2c(c1)CCCN2C(=O)c1sc2ccccc2c1Cl
RESULT: fulfilled

QUERY: Quick check: Normalized ratio of PI uptake (5 μM) of COc1ccc2c(Cl)c(C3=NCCc4cc(OC)c(OC)cc43)sc2c1 under 0.2?
RESULT: fulfilled
